// values below are reported AC50
- Assay Target: Sodium channel protein type 5 subunit alpha (Homo sapiens, UniProt Q14524); also: assay procedure not described here
- Sequence (Q14524 whole entry): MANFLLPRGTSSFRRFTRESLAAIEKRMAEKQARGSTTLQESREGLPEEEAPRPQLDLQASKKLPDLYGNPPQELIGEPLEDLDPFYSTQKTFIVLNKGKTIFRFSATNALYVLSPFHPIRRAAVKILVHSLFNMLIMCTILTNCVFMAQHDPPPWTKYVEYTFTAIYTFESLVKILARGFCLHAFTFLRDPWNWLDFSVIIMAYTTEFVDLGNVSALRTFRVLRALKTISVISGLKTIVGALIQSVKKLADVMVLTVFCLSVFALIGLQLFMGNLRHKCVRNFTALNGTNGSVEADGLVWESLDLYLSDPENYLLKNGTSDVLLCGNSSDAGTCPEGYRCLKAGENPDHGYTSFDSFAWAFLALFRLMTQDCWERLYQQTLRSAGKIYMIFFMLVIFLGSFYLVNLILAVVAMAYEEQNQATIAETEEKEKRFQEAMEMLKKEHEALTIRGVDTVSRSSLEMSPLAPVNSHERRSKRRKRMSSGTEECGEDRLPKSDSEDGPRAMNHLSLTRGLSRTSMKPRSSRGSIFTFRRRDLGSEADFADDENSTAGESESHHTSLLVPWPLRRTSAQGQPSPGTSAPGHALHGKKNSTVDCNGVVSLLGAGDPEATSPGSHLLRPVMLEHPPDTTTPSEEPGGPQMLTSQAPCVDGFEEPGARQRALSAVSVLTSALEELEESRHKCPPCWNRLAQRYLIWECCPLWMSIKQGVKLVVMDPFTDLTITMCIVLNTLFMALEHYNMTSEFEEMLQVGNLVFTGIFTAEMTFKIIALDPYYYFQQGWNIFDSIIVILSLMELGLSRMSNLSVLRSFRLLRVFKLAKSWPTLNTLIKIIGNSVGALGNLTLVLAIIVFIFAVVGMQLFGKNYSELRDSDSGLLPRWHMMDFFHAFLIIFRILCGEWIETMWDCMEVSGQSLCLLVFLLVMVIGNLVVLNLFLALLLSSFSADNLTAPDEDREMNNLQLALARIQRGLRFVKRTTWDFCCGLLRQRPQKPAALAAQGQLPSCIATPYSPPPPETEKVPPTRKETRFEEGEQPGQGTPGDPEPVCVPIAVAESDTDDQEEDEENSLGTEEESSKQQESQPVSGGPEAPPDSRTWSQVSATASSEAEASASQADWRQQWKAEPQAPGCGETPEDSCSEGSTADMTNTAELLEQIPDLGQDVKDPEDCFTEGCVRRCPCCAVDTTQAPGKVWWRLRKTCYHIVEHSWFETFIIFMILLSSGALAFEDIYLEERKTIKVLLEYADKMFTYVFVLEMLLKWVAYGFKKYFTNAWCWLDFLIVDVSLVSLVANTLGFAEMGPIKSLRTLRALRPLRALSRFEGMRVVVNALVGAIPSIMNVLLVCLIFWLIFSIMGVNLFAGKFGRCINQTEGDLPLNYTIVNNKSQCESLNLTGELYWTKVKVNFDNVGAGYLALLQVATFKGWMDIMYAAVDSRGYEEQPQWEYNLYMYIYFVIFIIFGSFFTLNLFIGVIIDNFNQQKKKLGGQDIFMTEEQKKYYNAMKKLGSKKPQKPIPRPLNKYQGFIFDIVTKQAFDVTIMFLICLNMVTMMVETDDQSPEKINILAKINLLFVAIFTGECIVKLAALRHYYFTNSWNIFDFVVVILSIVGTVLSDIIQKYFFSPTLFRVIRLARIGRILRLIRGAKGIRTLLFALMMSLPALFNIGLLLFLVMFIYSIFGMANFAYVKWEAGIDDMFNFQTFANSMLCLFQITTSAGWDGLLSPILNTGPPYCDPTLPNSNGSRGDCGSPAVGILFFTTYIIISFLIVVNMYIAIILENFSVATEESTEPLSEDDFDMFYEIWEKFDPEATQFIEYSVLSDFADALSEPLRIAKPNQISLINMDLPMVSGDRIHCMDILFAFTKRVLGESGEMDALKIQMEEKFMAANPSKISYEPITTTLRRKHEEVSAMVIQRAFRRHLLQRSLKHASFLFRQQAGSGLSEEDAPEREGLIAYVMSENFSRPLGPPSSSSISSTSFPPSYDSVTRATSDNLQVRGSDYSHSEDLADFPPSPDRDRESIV
- Type: functional, cell-based

Compound	AC50
CC1=C(C(=O)OC(C)C)C(c2cccc([N+](=O)[O-])c2)C(C(=O)OC2CN(C(c3ccccc3)c3ccccc3)C2)=C(N)N1 (stereo unspecified)	> 50 µM
CCCc1nc2c(C)cc(-c3nc4ccccc4n3C)cc2n1Cc1ccc(-c2ccccc2C(=O)O)cc1	27.3 µM
CCOC(=O)[C@@H](N)Cc1ccc(-c2cc(O[C@H](c3ccc(Cl)cc3-n3ccc(C)n3)C(F)(F)F)nc(N)n2)cc1	> 1 µM
CN(C)C/C=C/C(=O)Nc1cc2c(Nc3ccc(F)c(Cl)c3)ncnc2cc1O[C@H]1CCOC1	> 50 µM
CCOc1nc2cccc(C(=O)O)c2n1Cc1ccc(-c2ccccc2-c2nnn[nH]2)cc1	> 50 µM
CN(CCOc1ccc(CC2SC(=O)NC2=O)cc1)c1ccccn1 (stereo unspecified)	> 30 µM
